- Read-out: C-C motif chemokine 2 (Homo sapiens) (UniProt P13500)
- PROCEDURE_TEXT: BSK_KF3CT_MCP1: BioMAP Diversity Plus: KF3CT Assay for Monocyte Chemoattractant Protein 1 (MCP1/CCL2) Biomarker Activity (AID 2283073)
- PROTOCOL_CONDITIONS: primary human keratinocytes with fibroblasts; actives raise or lower the signal
The source made the active and inactive calls. Rule for the calls: active = hit-call score of the fitted dose curve at least 0.9, where 1 is the maximum; inactive = score below 0.9.
READOUT_NAME: AC50

* COC(=O)c1c(C(F)F)nc(C(F)(F)F)c(C2=NCCS2)c1CC(C)C | inactive
* CCOc1cc(C(C)(C)C)ccc1C1COC(c2c(F)cccc2F)=N1 (stereo unspecified) | 20 µM (active)
* CC(C)=CC1C(C(=O)OCc2coc(Cc3ccccc3)c2)C1(C)C (stereo unspecified) | inactive
* COCc1cnc(C2=NC(C)(C(C)C)C(=O)N2)c(C(=O)O)c1 (stereo unspecified) | inactive
* CCN(CC)C(=O)C(C)Oc1cccc2ccccc12 (stereo unspecified) | inactive
* COc1cc(OC)nc(NC(=O)NS(=O)(=O)c2ncccc2OCC(F)(F)F)n1 | inactive
* COP(=S)(OC)Oc1ccc([N+](=O)[O-])c(C)c1 | inactive
* N#Cc1c(Cl)cccc1Cl | inactive
* CC(C)(C)C(=O)C(Oc1ccc(Cl)cc1)n1cncn1 (stereo unspecified) | inactive
* CCSC(=O)N1CCCCCC1 | inactive
* Nc1c(Cl)c(Cl)nc(C(=O)O)c1Cl | inactive
* CCCCOCN(C(=O)CCl)c1c(CC)cccc1CC | 39.1 µM (active)
* CCOc1nc(F)cc2nc(S(=O)(=O)Nc3c(Cl)cccc3Cl)nn12 | inactive
* CCNP(=S)(OC)O/C(C)=C/C(=O)OC(C)C (stereo unspecified) | 0.733 µM (active)
* CC1(C)CON(Cc2ccccc2Cl)C1=O | inactive
* O=C(Nc1ccccc1-c1ccc(Cl)cc1)c1cccnc1Cl | 0.843 µM (active)

###

- Read-out: cysteine-aspartic acid protease (CASP8), CASP8 (gene 841)
- PROCEDURE_TEXT: LTEA_HepaRG_CASP8: Life Technologies and Expression Analysis (LTEA) Assay for cysteine-aspartic acid protease (CASP8) using HepaRG (AID 2283480)
- PROTOCOL_CONDITIONS: mRNA level, 48 h; actives raise or lower the signal
Calls of active or inactive are those of the source. How the source made its calls: active means hit-call score of the fitted dose curve at least 0.9, where 1 is the maximum; inactive means score below 0.9.
Classes used: True (active), False (inactive)

* CCNC(=O)NC(=O)C(C#N)=NOC | False
* Cc1ccc(N=CN(C)C=Nc2ccc(C)cc2C)c(C)c1 | False
* COc1cc(OC)nc(NC(=O)NS(=O)(=O)c2ncccc2OCC(F)(F)F)n1 | False
* COC(=O)NC(=S)Nc1ccccc1NC(=S)NC(=O)OC | False
* CC(C)=CC1C(C(=O)OCc2coc(Cc3ccccc3)c2)C1(C)C (centres undefined) | False
* CCCCC(C#N)(Cn1cncn1)c1ccc(Cl)cc1 (centres undefined) | False
* CC1(C)C(C=C(Cl)Cl)C1C(=O)OC(C#N)c1cccc(Oc2ccccc2)c1 (centres undefined) | False
* CC1(C)C(C(=O)OC(C#N)c2cccc(Oc3ccccc3)c2)C1(C)C (centres undefined) | False
* Cn1c(-c2ccccc2)cc(-c2ccccc2)[n+]1C | True
* O=P(O)(O)CCCl | False
* CN/C(=N\[N+](=O)[O-])NCc1cnc(Cl)s1 | False
* CS(=O)(=O)c1ccc(C(=O)C2C(=O)CCCC2=O)c([N+](=O)[O-])c1 | False
* CC(C)NC(=O)N1CC(=O)N(c2cc(Cl)cc(Cl)c2)C1=O | False
* CCCCC(O)(Cn1cncn1)c1ccc(Cl)cc1Cl (centres undefined) | False
